Molecular target: T1, CD3 epsilon homodimer protein (UniProt P07766 23-126)
T1 construct: also called CD3 (CD3 epsilon)
T1 sequence (P07766 23-126): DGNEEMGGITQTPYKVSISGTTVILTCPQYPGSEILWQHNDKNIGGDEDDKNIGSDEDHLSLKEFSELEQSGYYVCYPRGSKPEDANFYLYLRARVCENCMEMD
Test: SPR Biacore T200, CD3e homodimer on chip, vs unaltered GLS3000 antibody
Respond with true (1) for ratio of amounts bound (Z=Y/X) values of 0.6 and above, false (0) for values below.

Worked set:
1) GLS3000 N53G (antibody, name in Kabat numbering, V domains shown, one-arm IgG as m2) VH: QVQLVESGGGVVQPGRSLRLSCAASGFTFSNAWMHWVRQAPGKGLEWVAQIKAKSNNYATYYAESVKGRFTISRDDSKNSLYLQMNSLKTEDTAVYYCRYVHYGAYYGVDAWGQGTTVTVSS VL: DIVMTQSPLSLPVTPGEPASISCRSSQSLVHSNRNTYLHWYQQKPGQAPRLLIYKVSGRFSGVPDRFSGSGSGTDFTLKISRVEAEDVGVYYCGQGTQVPYTFGQGTKLEIK = true (1)
2) GLS3000 N30A (antibody, name in Kabat numbering, V domains shown, one-arm IgG as m2) VH: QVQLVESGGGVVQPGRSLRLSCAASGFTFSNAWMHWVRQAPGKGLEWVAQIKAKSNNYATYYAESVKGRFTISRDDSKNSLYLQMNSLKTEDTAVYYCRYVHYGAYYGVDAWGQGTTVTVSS VL: DIVMTQSPLSLPVTPGEPASISCRSSQSLVHSNRATYLHWYQQKPGQAPRLLIYKVSNRFSGVPDRFSGSGSGTDFTLKISRVEAEDVGVYYCGQGTQVPYTFGQGTKLEIK = false (0)
3) GLS3000 H27dF (antibody, name in Kabat numbering, V domains shown, one-arm IgG as m2) VH: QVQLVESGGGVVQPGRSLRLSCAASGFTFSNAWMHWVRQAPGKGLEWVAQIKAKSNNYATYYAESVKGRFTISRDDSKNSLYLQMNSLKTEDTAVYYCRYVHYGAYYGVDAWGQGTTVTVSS VL: DIVMTQSPLSLPVTPGEPASISCRSSQSLVFSNRNTYLHWYQQKPGQAPRLLIYKVSNRFSGVPDRFSGSGSGTDFTLKISRVEAEDVGVYYCGQGTQVPYTFGQGTKLEIK = true (1)
4) GLS3000 G91E (antibody, name in Kabat numbering, V domains shown, one-arm IgG as m2) VH: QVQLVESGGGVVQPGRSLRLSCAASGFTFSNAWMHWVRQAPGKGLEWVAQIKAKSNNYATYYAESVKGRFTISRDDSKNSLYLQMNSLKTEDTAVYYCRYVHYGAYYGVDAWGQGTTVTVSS VL: DIVMTQSPLSLPVTPGEPASISCRSSQSLVHSNRNTYLHWYQQKPGQAPRLLIYKVSNRFSGVPDRFSGSGSGTDFTLKISRVEAEDVGVYYCGQETQVPYTFGQGTKLEIK = false (0)
5) GLS3000 R29V (antibody, name in Kabat numbering, V domains shown, one-arm IgG as m2) VH: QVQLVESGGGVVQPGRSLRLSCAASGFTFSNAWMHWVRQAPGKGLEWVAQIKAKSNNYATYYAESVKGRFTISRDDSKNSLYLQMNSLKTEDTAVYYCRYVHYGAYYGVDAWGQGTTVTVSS VL: DIVMTQSPLSLPVTPGEPASISCRSSQSLVHSNVNTYLHWYQQKPGQAPRLLIYKVSNRFSGVPDRFSGSGSGTDFTLKISRVEAEDVGVYYCGQGTQVPYTFGQGTKLEIK = false (0)
6) GLS3000 H27dV (antibody, name in Kabat numbering, V domains shown, one-arm IgG as m2) VH: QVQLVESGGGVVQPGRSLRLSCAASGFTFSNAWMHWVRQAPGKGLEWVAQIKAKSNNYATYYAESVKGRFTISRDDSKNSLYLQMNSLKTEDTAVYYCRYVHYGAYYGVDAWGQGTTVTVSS VL: DIVMTQSPLSLPVTPGEPASISCRSSQSLVVSNRNTYLHWYQQKPGQAPRLLIYKVSNRFSGVPDRFSGSGSGTDFTLKISRVEAEDVGVYYCGQGTQVPYTFGQGTKLEIK = false (0)
7) GLS3000 K74T (antibody, name in Kabat numbering, V domains shown, one-arm IgG as m2) VH: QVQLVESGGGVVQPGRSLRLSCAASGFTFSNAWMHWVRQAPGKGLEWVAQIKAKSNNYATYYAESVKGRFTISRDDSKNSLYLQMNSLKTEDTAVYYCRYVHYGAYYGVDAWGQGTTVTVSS VL: DIVMTQSPLSLPVTPGEPASISCRSSQSLVHSNRNTYLHWYQQKPGQAPRLLIYKVSNRFSGVPDRFSGSGSGTDFTLTISRVEAEDVGVYYCGQGTQVPYTFGQGTKLEIK = true (1)
8) GLS3000 F55T (antibody, name in Kabat numbering, V domains shown, one-arm IgG as m2) VH: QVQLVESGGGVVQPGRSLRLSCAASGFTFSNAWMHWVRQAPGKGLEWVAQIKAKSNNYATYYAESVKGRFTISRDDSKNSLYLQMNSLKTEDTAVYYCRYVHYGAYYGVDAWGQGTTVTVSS VL: DIVMTQSPLSLPVTPGEPASISCRSSQSLVHSNRNTYLHWYQQKPGQAPRLLIYKVSNRTSGVPDRFSGSGSGTDFTLKISRVEAEDVGVYYCGQGTQVPYTFGQGTKLEIK = false (0)

# check: ratio of amounts bound (Z=Y/X) of GLS3000 V94Q (antibody, name in Kabat numbering, V domains shown, one-arm IgG as m2) VH: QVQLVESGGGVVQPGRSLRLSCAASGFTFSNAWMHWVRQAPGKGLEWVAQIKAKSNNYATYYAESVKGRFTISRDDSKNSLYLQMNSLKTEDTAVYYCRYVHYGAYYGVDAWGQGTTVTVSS VL: DIVMTQSPLSLPVTPGEPASISCRSSQSLVHSNRNTYLHWYQQKPGQAPRLLIYKVSNRFSGVPDRFSGSGSGTDFTLKISRVEAEDVGVYYCGQGTQQPYTFGQGTKLEIK is greater than or equal to 0.6
true (1)

# check: ratio of amounts bound (Z=Y/X) of GLS3000 G89F (antibody, name in Kabat numbering, V domains shown, one-arm IgG as m2) VH: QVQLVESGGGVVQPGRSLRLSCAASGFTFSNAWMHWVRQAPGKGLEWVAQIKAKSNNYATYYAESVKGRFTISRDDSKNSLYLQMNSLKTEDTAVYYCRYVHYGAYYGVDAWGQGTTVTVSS VL: DIVMTQSPLSLPVTPGEPASISCRSSQSLVHSNRNTYLHWYQQKPGQAPRLLIYKVSNRFSGVPDRFSGSGSGTDFTLKISRVEAEDVGVYYCFQGTQVPYTFGQGTKLEIK is greater than or equal to 0.6
true (1)
